Biological target: MAPK14/p38α (Homo sapiens, UniProt Q16539)
Sequence (Q16539 whole entry): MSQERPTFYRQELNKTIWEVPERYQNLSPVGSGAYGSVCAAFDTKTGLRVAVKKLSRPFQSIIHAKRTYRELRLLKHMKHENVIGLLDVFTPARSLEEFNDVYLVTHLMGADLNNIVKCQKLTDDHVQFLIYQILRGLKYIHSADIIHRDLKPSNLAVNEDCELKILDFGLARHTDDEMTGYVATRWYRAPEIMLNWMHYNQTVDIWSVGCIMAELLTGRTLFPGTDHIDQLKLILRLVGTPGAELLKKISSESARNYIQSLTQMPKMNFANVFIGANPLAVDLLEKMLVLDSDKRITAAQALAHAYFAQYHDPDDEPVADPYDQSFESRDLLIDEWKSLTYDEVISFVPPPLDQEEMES
Experiment: p38α MAP kinase activity based on the rate of phosphorylation of ATF-2 (TR-FRET)
Conditions: 90 μM ATP, 0.4 μM GFP-ATF2 (19–96), 1 ng/mL MAPK14/p38α, 1 h RT; read-out: p38α MAP kinase inhibitory activity IC50
pIC50: −log10 of the molar value.
OBSERVABLE: pIC50

COMPOUND STRING: COc1ccc(NC(=O)N[C@H](Cc2cc(Br)c(OC)c(Br)c2)C(=O)NCCc2cc(Br)c(O)c(Br)c2)cc1
ASSAY TARGET: MAPK14/p38α (Homo sapiens, UniProt Q16539)
VALUE REPORTED: 6.95
//
COMPOUND STRING: COc1c(Br)cc(C[C@@H](NC(=O)Cc2cccc(Cl)c2)C(=O)NCCc2cc(Br)c(O)c(Br)c2)cc1Br
ASSAY TARGET: MAPK14/p38α (Homo sapiens, UniProt Q16539)
VALUE REPORTED: 7.04
//
COMPOUND STRING: CCCCOc1ccc(CC(=O)N[C@H](Cc2cc(Br)c(OC)c(Br)c2)C(=O)NCCc2cc(Br)c(O)c(Br)c2)cc1
ASSAY TARGET: MAPK14/p38α (Homo sapiens, UniProt Q16539)
VALUE REPORTED: 6.09
//
COMPOUND STRING: COc1c(Br)cc(CCNC(=O)Nc2ccccc2F)cc1Br
ASSAY TARGET: MAPK14/p38α (Homo sapiens, UniProt Q16539)
VALUE REPORTED: 7.87

---

Molecular target: MAPK14/p38α (Homo sapiens)
Assay: p38α MAP kinase activity based on the rate of phosphorylation of ATF-2 (TR-FRET)
Details: 90 μM ATP, 0.4 μM GFP-ATF2 (19–96), 1 ng/mL MAPK14/p38α, 1 h RT; read-out: p38α MAP kinase inhibitory activity IC50
pIC50: −log10 of the molar value.
Could you label it y if measured pIC50 is 7 or higher, and n otherwise?

COMPOUND STRING: CCCOc1ccc(NC(=O)N[C@H](Cc2cc(Br)c(OC)c(Br)c2)C(=O)NCCc2cc(Br)c(O)c(Br)c2)cc1
ASSAY TARGET: MAPK14/p38α (Homo sapiens)
CATEGORY LABEL: n

COMPOUND STRING: COc1c(Br)cc(CCNC(=O)Nc2ccc(C)cc2)cc1Br
ASSAY TARGET: MAPK14/p38α (Homo sapiens)
CATEGORY LABEL: n

COMPOUND STRING: COc1c(Br)cc(CCNC(=O)Nc2cccc(Cl)c2)cc1Br
ASSAY TARGET: MAPK14/p38α (Homo sapiens)
CATEGORY LABEL: y

COMPOUND STRING: COc1c(Br)cc(C[C@@H](NC(=O)Nc2cccc(Cl)c2)C(=O)NCCc2cc(Br)c(O)c(Br)c2)cc1Br
ASSAY TARGET: MAPK14/p38α (Homo sapiens)
CATEGORY LABEL: y

COMPOUND STRING: COc1c(Br)cc(CCNC(=O)Nc2ccc(OC(C)C)cc2)cc1Br
ASSAY TARGET: MAPK14/p38α (Homo sapiens)
CATEGORY LABEL: n

COMPOUND STRING: COc1c(Br)cc(CCNC(=O)Nc2ccc(F)cc2)cc1Br
ASSAY TARGET: MAPK14/p38α (Homo sapiens)
CATEGORY LABEL: y

---

Target: MAPK14/p38α (Homo sapiens, UniProt Q16539)
Test: p38α MAP kinase activity based on the rate of phosphorylation of ATF-2 (TR-FRET)
Format: biochemical
Details: 90 μM ATP, 0.4 μM GFP-ATF2 (19–96), 1 ng/mL MAPK14/p38α, 1 h RT; read-out: p38α MAP kinase inhibitory activity IC50
Method: 4.3. The p38α MAP Kinase Activity Based on the Rate of Phosphorylation of ATF-2 Kinase reaction buffer composition: 50 mM HEPES (pH 7.5), 10 mM MgCl2, 0.01% BRIJ-35 and 1 mM EGTA. Titration MAPK14/p38α at 90 μM ATP: Prepare MAPK14/p38α in kinase buffer at a concentration of 500 ng/mL. Perform two-fold serial dilution using kinase buffer from 500 ng/mL, 16 dose points. Add 5 μL of the serially diluted MAPK14/p38α into the 384-well plate in triplicate. […]
pIC50: −log10 of the molar value.
Could you label it t if measured pIC50 is 7 or higher, and f otherwise?

COMPOUND: COc1c(Br)cc(CCNC(=O)Nc2ccc(OCCCN3CCOCC3)cc2)cc1Br [Compound 6o]
CATEGORY LABEL: t
--
COMPOUND: COc1ccc(NC(=O)NCCc2cc(Br)c(OC)c(Br)c2)cc1 [Compound 6a]
CATEGORY LABEL: f
--
COMPOUND: CCOc1ccc(NC(=O)NCCc2cc(Br)c(OC)c(Br)c2)cc1 [Compound 6b]
CATEGORY LABEL: f
--
COMPOUND: COc1c(Br)cc(C[C@@H](NC(=O)Nc2ccccc2Cl)C(=O)NCCc2cc(Br)c(O)c(Br)c2)cc1Br [Compound 5j]
CATEGORY LABEL: f
--
COMPOUND: CCC(C)Oc1ccc(NC(=O)NCCc2cc(Br)c(OC)c(Br)c2)cc1 (centres unmarked) [Compound 6e]
CATEGORY LABEL: f

---

Biological target: MAPK14/p38α (Homo sapiens, UniProt Q16539)
Assay: p38α MAP kinase activity based on the rate of phosphorylation of ATF-2 (TR-FRET)
Details: 90 μM ATP, 0.4 μM GFP-ATF2 (19–96), 1 ng/mL MAPK14/p38α, 1 h RT; read-out: p38α MAP kinase inhibitory activity IC50
pIC50: −log10 of the molar value.
Quick reference for pIC50 among some molecules
OBSERVABLE: pIC50

MOLECULE: COc1c(Br)cc(C[C@@H](NC(=O)Cc2ccc(Br)cc2)C(=O)NCCc2cc(Br)c(O)c(Br)c2)cc1Br [Compound 4k]
VALUE REPORTED: 6.08

MOLECULE: CCCCOc1ccc(NC(=O)N[C@H](Cc2cc(Br)c(OC)c(Br)c2)C(=O)NCCc2cc(Br)c(O)c(Br)c2)cc1 [Compound 5d]
VALUE REPORTED: 6.16

MOLECULE: CCOc1ccc(NC(=O)N[C@H](Cc2cc(Br)c(OC)c(Br)c2)C(=O)NCCc2cc(Br)c(O)c(Br)c2)cc1 [Compound 5b]
VALUE REPORTED: 6.46

MOLECULE: COc1c(Br)cc(C[C@@H](NC(=O)Nc2ccc(C)cc2)C(=O)NCCc2cc(Br)c(O)c(Br)c2)cc1Br [Compound 5n]
VALUE REPORTED: 6.56

MOLECULE: COc1c(Br)cc(CCNC(=O)Nc2ccc(Br)cc2)cc1Br [Compound 6k]
VALUE REPORTED: 6.77

MOLECULE: COCCOc1ccc(NC(=O)NCCc2cc(Br)c(OC)c(Br)c2)cc1 [Compound 6g]
VALUE REPORTED: 7.93

MOLECULE: COc1c(Br)cc(CC(NC(=O)Nc2ccc(OCCCN3CCOCC3)cc2)C(=O)NCCc2cc(Br)c(O)c(Br)c2)cc1Br (stereo not shown) [Compound 5o]
VALUE REPORTED: 6.87

---

Quick reference for IC50 among some molecules
Biological target: MAPK14/p38α (Homo sapiens, UniProt Q16539)
Assay: p38α MAP kinase activity based on the rate of phosphorylation of ATF-2 (TR-FRET)
Assay type: biochemical
Settings: 90 μM ATP, 0.4 μM GFP-ATF2 (19–96), 1 ng/mL MAPK14/p38α, 1 h RT; read-out: p38α MAP kinase inhibitory activity IC50

COMPOUND STRING: COc1c(Br)cc(C[C@@H](NC(=O)Cc2ccccc2F)C(=O)NCCc2cc(Br)c(O)c(Br)c2)cc1Br
IC50: 0.0786 µM

COMPOUND STRING: COc1c(Br)cc(C[C@@H](NC(=O)Cc2ccc(OCCCN3CCOCC3)cc2)C(=O)NCCc2cc(Br)c(O)c(Br)c2)cc1Br
IC50: 0.138 µM

COMPOUND STRING: COc1c(Br)cc(CCNC(=O)Nc2ccccc2Cl)cc1Br
IC50: 0.0712 µM

Source listed as paper PMC6356581.
